Species: Homo sapiens
METHOD_DESCRIPTION: Selectivity for human adenosine A1 receptor over human adenosine A2A receptor
Criterion: Ratio strictly less than 500. Met: 1. Not met: 0.

| SMILES_RECORD | CATEGORY_LABEL |
| --- | --- |
| COCCN(CCc1ccc(F)cc1)c1cc2nc(-c3ccco3)nn2c(N)n1 | 0 |
| COCCOc1ccc(N2CCN(CCN(C)c3cc4nc(-c5cccc(C#N)c5)nn4c(N)n3)CC2)cc1 | 0 |
| CCN(CCc1ccc(F)cc1)c1cc2nc(-c3ccco3)nn2c(N)n1 | 0 |
| Cc1nccnc1-c1nc2cc(N(C)CCN3CCN(c4ccc(F)cc4F)CC3)nc(N)n2n1 | 0 |
| COCCOc1ccc(N2CCN(CCOc3cc4nc(-c5ccc(Cl)o5)nn4c(N)n3)CC2)cc1 | 1 |
